# system-name: T1, AFP158/HLA-A*02:01 complex (human)
# T1 construct: flowed as analyte in SPR
# experiment: SPR, crude scFv captured, pMHC analyte;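 also: complex injected at several concentrations over the chip, association phase then running buffer for dissociation, KD derived from on- and off-rates computed from both curves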
measured-quantity: Kd (nM)
Please give a number only; it is taken to be in nM.

| binder | units-symbol | Kd |
| --- | --- | --- |
| AS170036 VL1VH1-57M98I108S (scFv, also called 81-AS170036 VL1VH1-57M98I108S) scFv: QSALTQPRSVSGSPGQSVTISCAGTSSDVGSENYVSWYQQHPGKAPKLMIYQVNKRASGVPDRFSGSKSGNTASLTISGLQAEDEADYYCASYRSSDINIVFGGGTKLTVLGGGGSGGGGSGGGGSEVQLVESGGGLVQPGGSLRLSCAASGFTFSSYAMSWVRQAPGKGLEWVSTINSGTGMPYYADSVKGRFTISRDNSKNTLYLQMNSLRAEDTAVYYCAKNFFDGSWFLSPPAMDYWGQGTLVTVSSHHHHHH | nM | 21 |

Now consider the entry below.
### Prompt Which measured Kd value corresponds to AS170036 VL1VH1-57K98I108S (scFv, also called 72-AS170036 VL1VH1-57K98I108S) scFv: QSALTQPRSVSGSPGQSVTISCAGTSSDVGSENYVSWYQQHPGKAPKLMIYQVNKRASGVPDRFSGSKSGNTASLTISGLQAEDEADYYCASYRSSDINIVFGGGTKLTVLGGGGSGGGGSGGGGSEVQLVESGGGLVQPGGSLRLSCAASGFTFSSYAMSWVRQAPGKGLEWVSTINSGTGKPYYADSVKGRFTISRDNSKNTLYLQMNSLRAEDTAVYYCAKNFFDGSWFLSPPAMDYWGQGTLVTVSSHHHHHH ?
### Response 11
